system: α1-adrenergic receptor
method_description: [3H]-WB4101: α1-adrenergic receptor binding in rat brain
experimental_parameters: rat brain membranes minus cerebella, 0.5 nM 3H-WB4101, pH 7.7, 15 minutes; read-out: [3H]-WB4101: α1-Adrenergic Receptor (IC50) Antagonist Activity
Entries and their IC50 values follow.
Report the value in nM with no unit label.

{"columns": ["molecule", "unit_abbreviation", "data_value"],
 "data": [
  ["COc1cc2onc(CCCNCCc3ccccc3)c2cc1OC.Cl [hydrochloride]", "nM", 83]
]}

Below: the item to evaluate.
Quick one: IC50 of COc1cc2onc(CCCN(C)CCc3ccccc3)c2cc1OC.O=C(O)C(=O)O [oxalate] ?
67

Data origin: patent US4980365A
